system.under.test: FGFR3-BAIAP2L1 Ba/F3 cells (Homo sapiens)
Sequence (P22607 23-806 limits assumed, change not shown): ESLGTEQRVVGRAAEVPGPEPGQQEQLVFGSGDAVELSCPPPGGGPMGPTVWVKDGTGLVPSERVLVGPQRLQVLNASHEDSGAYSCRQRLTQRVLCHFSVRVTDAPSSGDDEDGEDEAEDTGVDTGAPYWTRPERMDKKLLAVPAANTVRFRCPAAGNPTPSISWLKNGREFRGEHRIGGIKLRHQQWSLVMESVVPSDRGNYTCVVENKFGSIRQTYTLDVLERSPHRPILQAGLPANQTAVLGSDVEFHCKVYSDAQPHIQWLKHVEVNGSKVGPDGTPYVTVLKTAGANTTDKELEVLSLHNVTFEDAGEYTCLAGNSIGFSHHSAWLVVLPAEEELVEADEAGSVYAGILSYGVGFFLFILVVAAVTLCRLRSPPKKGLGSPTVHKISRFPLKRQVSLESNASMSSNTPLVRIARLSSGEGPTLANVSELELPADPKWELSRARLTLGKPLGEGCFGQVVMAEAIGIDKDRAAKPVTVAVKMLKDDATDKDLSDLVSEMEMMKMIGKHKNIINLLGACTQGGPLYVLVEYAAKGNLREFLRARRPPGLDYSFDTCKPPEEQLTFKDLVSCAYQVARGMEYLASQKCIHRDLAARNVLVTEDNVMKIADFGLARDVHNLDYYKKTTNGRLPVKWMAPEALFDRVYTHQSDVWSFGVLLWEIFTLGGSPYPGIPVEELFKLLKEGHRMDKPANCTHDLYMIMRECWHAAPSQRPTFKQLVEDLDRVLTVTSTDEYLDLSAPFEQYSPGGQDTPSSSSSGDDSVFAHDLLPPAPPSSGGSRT
experimental.protocol: Ba/F3 cell viability assay (CellTiter-Glo 2.0), FGFR3-BAIAP2L1 Ba/F3
Type: cell-based
condition.summary: read-out: Ba/F3 Cells FGFR3 (IC50 nM); FGFR3-BAIAP2L1 Ba/F3 cells, 48 hours, Cell Titer Glo 2.0
value.kind: IC50

In the examples that follow, each entry is paired with its recorded IC50.
molecule	endpoint.result
C[C@@H](Oc1ccc2[nH]nc(-c3ccc(N4CC5(CCN(S(C)(=O)=O)C5)C4)nc3)c2c1)c1c(Cl)cncc1Cl [Example 115]	1 to 20 nM
C[C@@H](Oc1ccc2[nH]nc(-c3ccc(N4CCN(C(=O)N(C)C)C5(CC5)C4)nc3)c2c1)c1c(Cl)cncc1Cl [Example 23]	1 to 20 nM
C[C@@H](Oc1ccc2[nH]nc(-c3cnc(N4CCC5(CCN(C)C5=O)CC4)nc3)c2c1)c1c(Cl)cncc1Cl [Example 51]	20 to 100 nM
C[C@@H](Oc1ccc2[nH]nc(-c3cnn(C4CCNCC4)c3)c2c1)c1cc(F)cc(F)c1 [Example 166]	100 to 300 nM
C[C@@H](Oc1ccc2[nH]nc(-c3cnn(C4CCN(C5COC5)CC4)c3)c2c1)c1c(Cl)cncc1Cl [Example 87]	1 to 20 nM
C[C@@H](Oc1ccc2[nH]nc(-c3cnc(N4CCC5(CCC(=O)N5)CC4)c(F)c3)c2c1)c1c(Cl)cncc1Cl [Example 42]	1 to 20 nM

Now let's try a different one.
# input Recorded IC50 for C[C@@H](Oc1ccc2[nH]nc(-c3cnc(N4CCC5(CCC(=O)N5C)CC4)nc3)c2c1)c1c(Cl)cncc1Cl [Example 54] , please?
# output 1 to 20 nM
